Please provide measured Ki for the entries that follow.
A number alone suffices; assume nM.

Retrieve Ki on 5-hydroxytryptamine receptor 1A (Homo sapiens); query O=C1CCc2c(F)ccc(OCC(O)CN3CCC4(CC3)OCc3c4ccc4ccccc34)c21 (stereo not given)
Sequence (P08908 whole entry): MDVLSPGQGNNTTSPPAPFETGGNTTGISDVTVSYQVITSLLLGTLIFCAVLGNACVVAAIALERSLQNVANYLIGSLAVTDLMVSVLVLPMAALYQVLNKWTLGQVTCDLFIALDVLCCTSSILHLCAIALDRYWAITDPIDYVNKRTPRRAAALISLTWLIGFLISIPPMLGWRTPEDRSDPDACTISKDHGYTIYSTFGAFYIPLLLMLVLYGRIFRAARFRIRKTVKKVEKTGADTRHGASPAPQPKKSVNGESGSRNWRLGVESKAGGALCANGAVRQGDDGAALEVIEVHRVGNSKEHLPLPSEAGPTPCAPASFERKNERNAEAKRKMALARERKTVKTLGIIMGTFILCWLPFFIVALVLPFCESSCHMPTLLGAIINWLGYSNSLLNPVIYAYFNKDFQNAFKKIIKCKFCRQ
2.3

Check 5-hydroxytryptamine receptor 1A (Homo sapiens) data and give Ki for OC(COc1cc(F)cc2c1OCCC2)CN1CCC2(CC1)OCc1c2ccc2ccccc12 (stereo not given) .
5.5

# return Ki for c1ccc(CCCCN2CCC3(CC2)OCc2c3ccc3ccccc23)cc1 , test system: 5-hydroxytryptamine receptor 1A (Homo sapiens)
72

Quote 5-hydroxytryptamine receptor 1A (Homo sapiens) Ki for entry OC(COCc1ccccc1)CN1CCC2(CC1)OCc1c2ccc2ccccc12 (stereo not given) .
2.2

# return Ki of OC(COc1ccc(F)c2c1OCCC2)CN1CCC2(CC1)OCc1c2ccc2ccccc12 (stereo not given) (system: 5-hydroxytryptamine receptor 1A (Homo sapiens))
2.8

System 5-hydroxytryptamine receptor 1A (Homo sapiens). Read-out Ki. Item O[C@H](COc1ccccc1F)CN1CCC2(CC1)OCc1c2ccc2ccccc12 . Report value.
1

Name the recorded Ki of CCc1cccc(OC[C@@H](O)CN2CCC3(CC2)OCc2c3ccc3ccccc23)c1 , assay system 5-hydroxytryptamine receptor 1A (Homo sapiens).
1.7

Report Ki on 5-hydroxytryptamine receptor 1A (Homo sapiens) for this entry: O[C@@H](COc1ccccc1F)CN1CCC2(CC1)OCc1c2ccc2ccccc12
6

Given OC(CCc1ccccc1)CN1CCC2(CC1)OCc1c2ccc2ccccc12 (stereo not given) , report its Ki on 5-hydroxytryptamine receptor 1A (Homo sapiens).
8.3

Recall the reported Ki of O[C@H](COc1ccccc1)CN1CCC2(CC1)OCc1c2ccc2ccccc12 when tested on 5-hydroxytryptamine receptor 1A (Homo sapiens).
1.1
